- System: Caco-2/TC7 cells
- EXPERIMENT NOTES: MTT cytotoxicity / antiproliferative assay on Caco-2/TC7 cells
- Type: cell-based, human
- CONDITION LABEL: 37 °C values rounded; read-out: IC50 values in Caco-2
- Experimental: Human fibroblast cells were kindly provided by Dr. Julio Montoya (Unidad de Bioquímica, Facultad de Veterinaria, Universidad de Zaragoza, Spain). Caco-2 cells (passages 40–70) and fibroblasts (passages 10–30) were maintained in a humidified atmosphere of 5% CO2 at 37 °C. […] For cytotoxicity screening assays, Caco-2 cells were seeded in 96-well plates at a density of 4 × 10^3 cells/well. […] Antiproliferative effect was measured with MTT assay as previously described by Mármol et al.. […]
MEASURED ENDPOINT: pIC50
As a rule, pIC50 stands for the negative log10 of the concentration, concentration in M.

Input line: I would be grateful if you could share the reported pIC50 for CCCCCCCC[N+]12CN3CN(C1)C[P+]([Au-][S]c1ccccn1)(C3)C2.[I-] [Complex 3a, [Au(C5H5NS)(PTA-CH2(CH2)6CH3)]I] .
Output line: 5.60

Input line: Entry under review: FC(F)(F)C(F)(F)C(F)(F)C(F)(F)C(F)(F)C(F)(F)CC[N+]12CN3CN(C1)C[P+]([Au-][S]c1ccccn1)(C3)C2.O=S(=O)([O-])C(F)(F)F [Complex 3b, [Au(C5H5NS)(PTA-CH2CH2(CF2)5CF3)](TfO)] . Reported pIC50?
Output line: 5.29

====

- Test system: Human fibroblast cells
- EXPERIMENT NOTES: MTT cytotoxicity assay on fibroblasts
- Assay type: cell-based
- CONDITION LABEL: MTT; mean ± SE
MEASURED ENDPOINT: IC50 (µM)
Give the value in µM but do not write µM after it.

Input line: Consider the compound shown here: CCCCCCCC[N+]12CN3CN(C1)C[P+]([Au-][S]c1ccccn1)(C3)C2.[I-] [Complex 3a, [Au(C5H5NS)(PTA-CH2(CH2)6CH3)]I] What is its recorded IC50?
Output line: 12.1

Input line: What value of measured IC50 is listed for CCCCCCCC[N+]12CN3CN(C1)C[P+]([Au-2]([Cl])[P+]14CN5CN(C[N+](CCCCCCCC)(C5)C1)C4)(C3)C2.[I-].[I-] [Complex 2a, [AuCl(PTA-CH2(CH2)6CH3)2]I2] ?
Output line: 13.5

Input line: Form field: reported IC50 of FC(F)(F)C(F)(F)C(F)(F)C(F)(F)C(F)(F)C(F)(F)CC[N+]12CN3CN(C1)C[P+]([Au-2]([Cl])[P+]14CN5CN(C[N+](CCC(F)(F)C(F)(F)C(F)(F)C(F)(F)C(F)(F)C(F)(F)F)(C5)C1)C4)(C3)C2.O=S(=O)([O-])C(F)(F)F.O=S(=O)([O-])C(F)(F)F [Complex 2b, [AuCl(PTA-CH2CH2(CF2)5CF3)2](TfO)2]
Output line: 11.6

Input line: Suppose we examine the compound FC(F)(F)C(F)(F)C(F)(F)C(F)(F)C(F)(F)C(F)(F)CC[N+]12CN3CN(C1)C[P+]([Au-][S]c1ccccn1)(C3)C2.O=S(=O)([O-])C(F)(F)F [Complex 3b, [Au(C5H5NS)(PTA-CH2CH2(CF2)5CF3)](TfO)] ; what IC50 value has been reported?
Output line: 12.8
